Target: Recombinant human DDR2 (Homo sapiens (Human), UniProt Q16832)
Sequence (Q16832 427-855): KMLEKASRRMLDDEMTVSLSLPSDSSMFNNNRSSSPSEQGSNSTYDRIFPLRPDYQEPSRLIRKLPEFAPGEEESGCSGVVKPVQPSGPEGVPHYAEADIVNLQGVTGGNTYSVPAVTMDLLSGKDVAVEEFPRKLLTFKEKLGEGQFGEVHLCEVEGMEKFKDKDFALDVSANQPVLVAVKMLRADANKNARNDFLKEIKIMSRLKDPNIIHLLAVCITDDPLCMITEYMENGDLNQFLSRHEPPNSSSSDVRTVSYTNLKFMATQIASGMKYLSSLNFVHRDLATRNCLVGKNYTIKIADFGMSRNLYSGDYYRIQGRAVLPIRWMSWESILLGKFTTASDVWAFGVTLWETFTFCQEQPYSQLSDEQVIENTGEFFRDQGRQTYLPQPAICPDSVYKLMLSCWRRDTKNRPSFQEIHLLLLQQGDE
Assay: LanthaScreen Eu Kinase Binding Assay, DDR2
Conditions: DDR2 1.75 nM (aa427-855, GST tag), Kinase Tracer 178 10 nM; read-out: DDR2 pIC50 (converted)
READOUT NAME: IC50

Consider the reported IC50 for these molecules:
| MOLECULE | RESULT |
| --- | --- |
| Cc1n[nH]c2cc(Nc3cccc4c3C(=O)N(CC(=O)Nc3ccc(CN(C)C)c(C(F)(F)F)c3)C4)ccc12 | 10 to 100 nM |
| CN(c1cnc2[nH]ncc2c1)c1cccc2c1C(=O)N(CC(=O)N1CCC[C@H]1C(F)(F)F)C2 | 10 to 100 nM |
| C[C@H](NC(=O)CN1Cc2cccc(N(C)c3cnc4[nH]ncc4c3)c2C1=O)C(F)(F)F | 10 to 100 nM |
| Cc1n[nH]c2cc(N(C)c3cccc4c3C(=O)N(CC(=O)NCC(F)(F)F)C4)ccc12 | 100 to 1000 nM |
| Cc1n[nH]c2cc(Nc3cccc4c3C(=O)N(CC(=O)N3CCO[C@@H](C(F)(F)F)C3)C4)cnc12 | 100 to 1000 nM |

Using the record for Cn1ncc2cc(Nc3cccc4c3C(=O)N(CC(=O)NC3CC3(F)F)C4)ccc21 (stereo not drawn) , report its IC50. 10 to 100 nM

Using the record for Cc1n[nH]c2cc(Nc3cccc4c3C(=O)N(CC(=O)N3CCO[C@@H](C(F)(F)F)C3)C4)ccc12 , report its IC50. 10 to 100 nM

Using the record for Cc1n[nH]c2cc(Nc3cccc4c3C(=O)N(CC(=O)N3CCC[C@H]3C(F)(F)F)C4)ccc12 , report its IC50. < 10 nM

* * *

IC50 overview
Biological target: Recombinant human DDR2 (Homo sapiens (Human), UniProt Q16832)
Test: LanthaScreen Eu Kinase Binding Assay, DDR2
Settings: DDR2 1.75 nM (aa427-855, GST tag), Kinase Tracer 178 10 nM; read-out: DDR2 pIC50 (converted)

Consider the reported IC50 for these molecules:
| MOLECULE | IC50 |
| --- | --- |
| Cn1ncc2cc(Nc3cccc4c3C(=O)N(CC(=O)N3CC(C(F)(F)F)C3)C4)ccc21 [Example 18] | 100 to 1000 nM |
| Cn1ncc2cc(Nc3cccc4c3C(=O)N(CC(=O)NCC(F)(F)F)C4)cc(F)c21 [Example 93] | 10 to 100 nM |
| C[C@H](N(C)C(=O)CN1Cc2cccc(Nc3cnc4[nH]ncc4c3)c2C1=O)C(F)(F)F [Example 77] | 10 to 100 nM |

Could you now look at the following molecule, please?
Using the record for O=C(CN1Cc2cccc(Nc3ccc4cn[nH]c4c3)c2C1=O)NCC(F)(F)F [Example 81] , report its IC50. 100 to 1000 nM

* * *

Target: Recombinant human DDR1 (Homo sapiens (Human), UniProt Q08345)
Sequence (Q08345 other isoform, or with tags, fused parts or gaps): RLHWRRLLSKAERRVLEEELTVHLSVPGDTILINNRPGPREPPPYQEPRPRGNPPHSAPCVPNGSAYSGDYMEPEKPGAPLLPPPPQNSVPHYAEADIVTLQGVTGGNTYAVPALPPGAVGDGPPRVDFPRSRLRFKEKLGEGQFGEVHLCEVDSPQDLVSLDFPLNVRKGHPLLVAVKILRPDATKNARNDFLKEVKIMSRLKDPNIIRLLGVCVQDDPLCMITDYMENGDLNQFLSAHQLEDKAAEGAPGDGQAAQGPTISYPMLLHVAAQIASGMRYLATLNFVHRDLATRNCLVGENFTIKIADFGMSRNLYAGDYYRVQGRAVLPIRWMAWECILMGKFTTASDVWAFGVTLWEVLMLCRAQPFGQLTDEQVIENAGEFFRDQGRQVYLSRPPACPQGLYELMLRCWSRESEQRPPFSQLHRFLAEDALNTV
Experiment: LanthaScreen Eu Kinase Binding Assay, DDR1
Settings: DDR1 2.5 nM (aa440-876, GST tag), Kinase Tracer 178 5 nM; read-out: DDR1 pIC50 (converted)
READOUT NAME: IC50

Consider the reported IC50 for these compounds:
| COMPOUND | RESULT |
| --- | --- |
| Cn1ncc2cc(Nc3nccc4c3C(=O)N(CC(=O)N3CCC[C@H]3C(F)(F)F)C4)ccc21 [Example 97] | 10 to 100 nM |
| CN(CC(F)(F)F)C(=O)CN1Cc2cccc(Nc3cnc4[nH]ncc4c3)c2C1=O [Example 76] | 10 to 100 nM |
| Cn1ncc2cc(Nc3cccc4c3C(=O)N(CC(=O)N3CCO[C@H](C(F)(F)F)C3)C4)cnc21 [Example 54] | 100 to 1000 nM |
| N#Cc1n[nH]c2ccc(Nc3cccc4c3C(=O)N(CC(=O)N3CCC[C@H]3C(F)(F)F)C4)cc12 [Example 82] | 10 to 100 nM |
| Cc1n[nH]c2cc(N(C)c3cccc4c3C(=O)N(CC(=O)NCC(F)(F)F)C4)ccc12 [Example 78] | 10 to 100 nM |
| Cn1ncc2cc(Nc3cccc4c3C(=O)N(CC(=O)N3CC(F)(F)C3)C4)ccc21 [Example 19] | 100 to 1000 nM |
| O=C1c2c(cccc2Nc2ccc3[nH]nc(F)c3c2)CN1CC(=O)N1CCC[C@H]1C(F)(F)F [Example 83] | 10 to 100 nM |
| Cc1n[nH]c2cc(Nc3cccc4c3C(=O)N(CC(=O)NCC(F)(F)F)C4)cc(Cl)c12 [Example 91] | 10 to 100 nM |
| Cn1ncc2cc(Nc3cccc4c3C(=O)N(CC(=O)Nc3cccc(C(F)(F)F)c3)C4)cnc21 [Example 59] | 10 to 100 nM |
| Cn1ncc2cc(Nc3cccc4c3C(=O)N(CC(=O)NCC(F)(F)F)C4(C)C)ccc21 [Example 7] | 100 to 1000 nM |

Using the record for Cn1ncc2cc(Nc3cccc4c3C(=O)N(CC(=O)N3CCCC[C@H]3C(F)(F)F)C4)ccc21 [Example 14] , report its IC50. < 10 nM

Using the record for C[C@H](NC(=O)CN1Cc2cccc(N(C)c3cnc4[nH]ncc4c3)c2C1=O)C(F)(F)F [Example 89] , report its IC50. 10 to 100 nM

Just for reference, patent US20260069571A1 is where these values come from.
